Provide the reported MIC of each item.
- Test system: Mycobacterium tuberculosis strain H37Rv
- experiment: microplate Alamar blue assay (MABA)
- Assay type: cell-based
- condition description: Mycobacterium tuberculosis, H37RV, M. tuberculosis H37Rv; lowest concentration effecting 90% inhibition
Numbers only, in µg/mL.

Solved entries (count: 5):
CCCOC(=O)c1ccc2c(c1)[n+]([O-])c(C(C)=O)c(C(F)(F)F)[n+]2[O-]
3
CCOC(=O)c1c(C)[n+]([O-])c2ccc(C(=O)OC)cc2[n+]1[O-]
0.47
COC(=O)c1c(C)[n+]([O-])c2ccc(C(=O)OC(C)C)cc2[n+]1[O-]
0.58
CCCOC(=O)c1ccc2c(c1)[n+]([O-])c(C(N)=O)c(C)[n+]2[O-]
2.9
COC(=O)c1ccc2c(c1)[n+]([O-])c(C(=O)OC)c(C)[n+]2[O-]
0.29

Okay, here is my list. What is MIC for each of these?
1. CC(C)OC(=O)c1ccc2c(c1)[n+]([O-])c(C(=O)c1ccco1)c(C(F)(F)F)[n+]2[O-]
2. Cc1c(C(=O)OC(C)(C)C)[n+]([O-])c2cc(C(=O)OC(C)C)ccc2[n+]1[O-]
3. COC(=O)c1ccc2c(c1)[n+]([O-])c(C(=O)C(C)C)c(C(F)(F)F)[n+]2[O-]
4. COC(=O)c1ccc2c(c1)[n+]([O-])c(C(C)=O)c(C)[n+]2[O-]
5. CCOC(=O)c1c(C)[n+]([O-])c2ccc(C(=O)OC(C)C)cc2[n+]1[O-]
6. CCCOC(=O)c1ccc2c(c1)[n+]([O-])c(C(=O)c1ccco1)c(C(F)(F)F)[n+]2[O-]

A.
0.7
68.6
1.54
1.1
0.7
2.9

----------
- experiment: cytotoxicity on macrophages (Alamar blue) and selectivity index
- Assay type: cell-based, mouse
- condition description: mouse, J774A.1 macrophage cells; cytotoxicity on macrophage cell J774A.1 at 96 h
recorded endpoint: CC50 at 96 h (µg/mL)
Answers are plain numbers, in µg/mL.

CCCOC(=O)c1ccc2c(c1)[n+]([O-])c(C(=O)OC)c(C)[n+]2[O-]
36.5

Now consider the entry below.
Q. Assign CC50 at 96 h to the following record: COC(=O)c1ccc2c(c1)[n+]([O-])c(C(=O)OC)c(C)[n+]2[O-]
A. 86.2

----------
- System: Mycobacterium tuberculosis strain H37Rv
- experiment: microplate Alamar blue assay (MABA)
- Assay type: cell-based
- condition description: Mycobacterium tuberculosis, H37RV, M. tuberculosis H37Rv; lowest concentration effecting 90% inhibition
Can you tell me MIC for the items I'm about to list?

CC(=O)c1c(C(F)(F)F)[n+]([O-])c2ccc(C(=O)OC(C)C)cc2[n+]1[O-]
≤ 0.15 µg/mL
CCOC(=O)c1ccc2c(c1)[n+]([O-])c(C(=O)CC)c(C(F)(F)F)[n+]2[O-]
> 22 µg/mL

Now for another entry.
Q. Indicate its recorded MIC; the molecule in question is CC(C)OC(=O)c1ccc2c(c1)[n+]([O-])c(C(=O)c1cccs1)c(C(F)(F)F)[n+]2[O-]
A. ≤ 0.15 µg/mL

----------
Assignment: determine reported MIC for the given molecules.
- Tested on: Mycobacterium tuberculosis strain H37Rv
- experiment: microplate Alamar blue assay (MABA)
- Type: cell-based
- condition description: Mycobacterium tuberculosis, H37RV, M. tuberculosis H37Rv; lowest concentration effecting 90% inhibition

Illustrative cases are given below, each with its answer.
CC(C)OC(=O)c1ccc2c(c1)[n+]([O-])c(C(=O)C(C)C)c(C(F)(F)F)[n+]2[O-] [Compound T-085]
≤ 0.15 µg/mL
CCC(=O)c1c(C(F)(F)F)[n+]([O-])c2ccc(C(=O)OC)cc2[n+]1[O-] [Compound T-038]
< 0.4 µg/mL
COC(=O)c1ccc2c(c1)[n+]([O-])c(C(=O)c1ccccc1)c(C(F)(F)F)[n+]2[O-] [Compound T-018]
≤ 0.15 µg/mL

Could you now look at the following molecule, please?
Q. Given the molecule CCOC(=O)c1ccc2c(c1)[n+]([O-])c(C(=O)c1cccs1)c(C(F)(F)F)[n+]2[O-] [Compound T-011] , write its reported MIC.
A. ≤ 0.15 µg/mL
